# EXPERIMENTAL SYSTEM: T1, TNFR1 (Homo sapiens, UniProt P19438)
# T1 chain: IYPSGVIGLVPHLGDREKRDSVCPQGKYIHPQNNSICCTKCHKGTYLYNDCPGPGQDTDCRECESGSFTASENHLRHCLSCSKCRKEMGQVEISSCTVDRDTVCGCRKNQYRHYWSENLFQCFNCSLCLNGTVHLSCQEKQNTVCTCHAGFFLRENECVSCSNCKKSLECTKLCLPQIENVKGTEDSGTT
# EXPERIMENT NOTES: yeast display SC50
Consider the following binders; for each one, report its apparent Kd (screen).

Briefly, apparent Kd (screen) measured for L6F (designed binder) MTLQEFLREEALRRAEAEAFRYALELLAEKFPEQKEYLLDLAEEIESQIRSLSGVDVEDVRKFLDKEWAWVKELLAEHPAELAEVEAARAARLAELRAEVEAKVAA : 2.05 nM

Briefly, apparent Kd (screen) measured for R97K (designed binder) MTLQELLREEALRRAEAEAFRYALELLAEKFPEQKEYLLDLAEEIESQIRSLSGVDVEDVRKFLDKEWAWVKELLAEHPAELAEVEAARAARLAELKAEVEAKVAA : 0.539 nM
